# key: entry, value: pIC50
test system: HCT-15; experiment: Antiproliferative activity against human HCT-15 cells incubated for 72 hrs by microplate reader analysis; type: functional, cell-based; settings: HCT-15, 72 h
pIC50: −log10 of the molar value.
Property Name: pIC50

Compound	Value Reported
Oc1ccc2c(c1)-c1nc3c(c(-c4ccc(C(F)(F)F)cc4)c1C2)Cc1ccc(O)cc1-3	5.04
Oc1cccc2c1-c1nc3c(c(-c4ccccc4OC(F)(F)F)c1C2)Cc1cccc(O)c1-3	6.03
COc1cc([C@@H]2c3cc4c(cc3[C@@H](O[C@@H]3O[C@@H]5CO[C@@H](C)O[C@H]5[C@H](O)[C@H]3O)[C@H]3COC(=O)[C@H]23)OCO4)cc(OC)c1O [ETOPOSIDE]	5.71
COc1cccc2c1C(=O)c1c(O)c3c(c(O)c1C2=O)C[C@@](O)(C(=O)CO)C[C@@H]3O[C@H]1C[C@H](N)[C@H](O)[C@H](C)O1	5.45
Oc1ccc2c(c1)-c1nc3c(c(-c4cccs4)c1C2)Cc1ccc(O)cc1-3	6.35
